testTarget: Cholinesterase (Equus caballus) (UniProt P81908)
Sequence (P81908 whole entry): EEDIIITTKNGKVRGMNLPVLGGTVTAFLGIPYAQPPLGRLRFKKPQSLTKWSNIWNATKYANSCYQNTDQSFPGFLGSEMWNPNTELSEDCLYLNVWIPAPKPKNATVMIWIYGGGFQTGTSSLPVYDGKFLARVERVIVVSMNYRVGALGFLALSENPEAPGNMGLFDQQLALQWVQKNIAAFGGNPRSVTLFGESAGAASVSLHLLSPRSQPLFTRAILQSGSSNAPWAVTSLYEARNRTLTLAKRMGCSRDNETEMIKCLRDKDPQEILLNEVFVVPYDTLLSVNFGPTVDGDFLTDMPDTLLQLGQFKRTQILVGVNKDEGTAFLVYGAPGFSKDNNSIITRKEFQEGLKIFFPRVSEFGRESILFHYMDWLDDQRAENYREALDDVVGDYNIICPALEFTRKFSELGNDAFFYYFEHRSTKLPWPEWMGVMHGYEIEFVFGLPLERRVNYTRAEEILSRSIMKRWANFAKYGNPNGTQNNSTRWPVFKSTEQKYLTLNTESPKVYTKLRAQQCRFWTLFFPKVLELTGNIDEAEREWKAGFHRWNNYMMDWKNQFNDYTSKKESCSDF
measurementDescription: Inhibition of equine serum BChE at 20 uM by Ellman's method relative to control
Format: cell-free
Exercise: for every item that follows, state its recorded inhibition.

Request: Request the reported inhibition associated with `CN1CCN(c2ccc(-c3nc4ccccc4c(=O)[nH]3)cc2)CC1`
Result: 24.1%

Request: Request the reported inhibition associated with `COc1cc(OC)c2c(=O)[nH]c(-c3ccc(-c4ccncc4)cc3)nc2c1`
Result: 1.72%
